System: 276233-004-R-J1-PDC KRAS spheroids with HUVEC/MSC, viability
Assay overview: Anticancer human tumor 276233-004-R-J1-PDC patient-derived colon adenocarcinoma cell line growth inhibition [KRAS2]
Settings: second compound 0.316 µM; first compound 0.316 µM; stronger effect = lower value
# reported viability, T/C; entries follow
The reply should contain only the number, in %.

CCN1CCN(Cc2ccc(Nc3ncc(F)c(-c4cc(F)c5nc(C)n(C(C)C)c5c4)n3)nc2)CC1 + C=CC(=O)N1CCN(c2nc(OCC3CCCN3C)nc3c2CCN(c2cccc4cccc(C)c24)C3)CC1CC#N
78
O=C(c1cc(Cc2n[nH]c(=O)c3ccccc23)ccc1F)N1CCN(C(=O)C2CC2)CC1 + CNCc1ccccc1-c1csc(C(C)Nc2nc(C)nc3cc(OC)c(OC)cc23)c1
90.3

Consider now this further compound.
Sample COc1cc2nccc(Oc3ccc(NC(=O)C4(C(=O)Nc5ccc(F)cc5)CC4)cc3)c2cc1OC + C=CC(=O)N1CCN(c2nc(OCC3CCCN3C)nc3c2CCN(c2cccc4cccc(C)c24)C3)CC1CC#N — what was its viability, T/C?
86

###

Test system: 276233-004-R-J1-PDC KRAS spheroids with HUVEC/MSC, viability
Assay overview: Anticancer human tumor 276233-004-R-J1-PDC cell line growth inhibition [KRAS2];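 also: cells exposed to agents for seven days before viability read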
Settings: curve of first compound; second compound 10 µM
Source text: Multicellular complex tumor spheroid response to RAS pathway inhibitors in combination with a targeted agents in patient-derived cell lines with oncogenic KRAS variants from multiple cancer types A high-throughput screen of multi-cell type tumor spheroids was designed to identify active combinations of targeted small molecules and KRAS pathway inhibitors. […] Compounds. […] If the clinical Cmax for an agent had not been determined, the highest concentration tested was 10 microM. […]
Readout type: IC50

Some molecules with recorded IC50:
COc1cc(Nc2ncc3c(n2)-c2ccc(Cl)cc2C(c2c(F)cccc2OC)=NC3)ccc1C(=O)O + CNCc1ccccc1-c1csc(C(C)Nc2nc(C)nc3cc(OC)c(OC)cc23)c1
< 31.6 nM
CCN1CCN(Cc2ccc(Nc3ncc(F)c(-c4cc(F)c5nc(C)n(C(C)C)c5c4)n3)nc2)CC1 + CNCc1ccccc1-c1csc(C(C)Nc2nc(C)nc3cc(OC)c(OC)cc23)c1
< 3.16 nM
Cn1nccc1Nc1nccc(-c2cc3c(s2)C(C)(C)N(CCN2CCOCC2)C3=O)n1 + CNCc1ccccc1-c1csc(C(C)Nc2nc(C)nc3cc(OC)c(OC)cc23)c1
< 31.6 nM
CC1COCCN1c1cc(-c2ccnn2C)c2ccnc(-c3ccn[nH]3)c2n1 (stereo unspecified) + COc1cc2nc(C)nc(NC(C)c3cc(N)cc(C(F)(F)F)c3)c2cc1OC1CCOC1
< 10 nM
Cn1nccc1Nc1nccc(-c2cc3c(s2)C(C)(C)N(CCN2CCOCC2)C3=O)n1 + COc1cc2nc(C)nc(NC(C)c3cc(N)cc(C(F)(F)F)c3)c2cc1OC1CCOC1
< 31.6 nM

Consider now this further molecule.
Sample Cn1nccc1Nc1nccc(-c2cc3c(s2)C(C)(C)N(CCN2CCOCC2)C3=O)n1 + CC1OCC2(CCN(c3cnc(Sc4ccnc(N)c4Cl)c(N)n3)CC2)C1N — what was its IC50?
< 31.6 nM

###

Test system: 276233-004-R-J1-PDC KRAS spheroids with HUVEC/MSC, viability
Assay overview: Anticancer human tumor 276233-004-R-J1-PDC cell line growth inhibition [KRAS2];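 also: cells exposed to agents for seven days before viability read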;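 as to viability, T/C: 100% = DMSO vehicle control wells and lower values mean fewer viable cells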
Settings: second compound 0.1 µM; first compound 0.1 µM; stronger effect = lower value
# reported viability, T/C; entries follow
The reply should contain only the number, in %.

CC1OCC2(CCN(c3cnc(Sc4ccnc(N)c4Cl)c(N)n3)CC2)C1N (stereo not given) + COc1cc2nc(C)nc(NC(C)c3cc(N)cc(C(F)(F)F)c3)c2cc1OC1CCOC1
100

Sample COC(=O)c1ccc2c(C(=Nc3ccc(N(C)C(=O)CN4CCN(C)CC4)cc3)c3ccccc3)c(O)[nH]c2c1 + COc1cc2nc(C)nc(NC(C)c3cc(N)cc(C(F)(F)F)c3)c2cc1OC1CCOC1 — what was its viability, T/C?
77

Sample CC1(C)CCC(CN2CCN(c3ccc(C(=O)NS(=O)(=O)c4ccc(NCC5CCOCC5)c([N+](=O)[O-])c4)c(Oc4cnc5[nH]ccc5c4)c3)CC2)=C(c2ccc(Cl)cc2)C1 + COc1cc2nc(C)nc(NC(C)c3cc(N)cc(C(F)(F)F)c3)c2cc1OC1CCOC1 — what was its viability, T/C?
97

Sample CC(C)NCC(C(=O)N1CCN(c2ncnc3c2C(C)CC3O)CC1)c1ccc(Cl)cc1 (stereo not given) + CNCc1ccccc1-c1csc(C(C)Nc2nc(C)nc3cc(OC)c(OC)cc23)c1 — what was its viability, T/C?
69.9

Sample CC(C)n1nc(-c2ccc3oc(N)nc3c2)c2c(N)ncnc21 + C=CC(=O)N1CCN(c2nc(=O)n(-c3c(C)ccnc3C(C)C)c3nc(-c4c(O)cccc4F)c(F)cc23)C(C)C1 — what was its viability, T/C?
56.2

Sample O=C(c1cc(Cc2n[nH]c(=O)c3ccccc23)ccc1F)N1CCN(C(=O)C2CC2)CC1 + C=CC(=O)N1CCN(c2nc(=O)n(-c3c(C)ccnc3C(C)C)c3nc(-c4c(O)cccc4F)c(F)cc23)C(C)C1 — what was its viability, T/C?
96

Sample COC(=O)c1ccc2c(C(=Nc3ccc(N(C)C(=O)CN4CCN(C)CC4)cc3)c3ccccc3)c(O)[nH]c2c1 + CNCc1ccccc1-c1csc(C(C)Nc2nc(C)nc3cc(OC)c(OC)cc23)c1 — what was its viability, T/C?
80.5

Sample CC(C)NCC(C(=O)N1CCN(c2ncnc3c2C(C)CC3O)CC1)c1ccc(Cl)cc1 (stereo not given) + C=CC(=O)N1CCN(c2nc(=O)n(-c3c(C)ccnc3C(C)C)c3nc(-c4c(O)cccc4F)c(F)cc23)C(C)C1 — what was its viability, T/C?
128

Sample Cn1ncnc1[C@H]1c2n[nH]c(=O)c3cc(F)cc(c23)N[C@@H]1c1ccc(F)cc1 + COc1cc2nc(C)nc(NC(C)c3cc(N)cc(C(F)(F)F)c3)c2cc1OC1CCOC1 — what was its viability, T/C?
76

Sample CCN1CCN(Cc2ccc(Nc3ncc(F)c(-c4cc(F)c5nc(C)n(C(C)C)c5c4)n3)nc2)CC1 + COc1cc2nc(C)nc(NC(C)c3cc(N)cc(C(F)(F)F)c3)c2cc1OC1CCOC1 — what was its viability, T/C?
84.5

###

# reported viability, T/C; entries follow
Tested on: 276233-004-R-J1-PDC KRAS spheroids with HUVEC/MSC, viability
Assay overview: Anticancer human tumor 276233-004-R-J1-PDC cell line growth inhibition [KRAS2];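 also: cells exposed to agents for seven days before viability read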;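 as to viability, T/C: 100% = DMSO vehicle control wells and lower values mean fewer viable cells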
Settings: second compound 3.16 µM; first compound 1 µM; stronger effect = lower value
The reply should contain only the number, in %.

COc1cc(Nc2ncc3c(n2)-c2ccc(Cl)cc2C(c2c(F)cccc2OC)=NC3)ccc1C(=O)O + C=CC(=O)N1CCN(c2nc(=O)n(-c3c(C)ccnc3C(C)C)c3nc(-c4c(O)cccc4F)c(F)cc23)C(C)C1
105
CC1OCC2(CCN(c3cnc(Sc4ccnc(N)c4Cl)c(N)n3)CC2)C1N (stereo not given) + COc1cc2nc(C)nc(NC(C)c3cc(N)cc(C(F)(F)F)c3)c2cc1OC1CCOC1
70

Sample CC1(C)CCC(CN2CCN(c3ccc(C(=O)NS(=O)(=O)c4ccc(NCC5CCOCC5)c([N+](=O)[O-])c4)c(Oc4cnc5[nH]ccc5c4)c3)CC2)=C(c2ccc(Cl)cc2)C1 + CNCc1ccccc1-c1csc(C(C)Nc2nc(C)nc3cc(OC)c(OC)cc23)c1 — what was its viability, T/C?
0.7

Sample CCNC(=O)CC1N=C(c2ccc(Cl)cc2)c2cc(OC)ccc2-n2c(C)nnc21 (stereo not given) + C=CC(=O)N1CCN(c2nc(=O)n(-c3c(C)ccnc3C(C)C)c3nc(-c4c(O)cccc4F)c(F)cc23)C(C)C1 — what was its viability, T/C?
49.4

Sample CC1COCCN1c1cc(-c2ccnn2C)c2ccnc(-c3ccn[nH]3)c2n1 (stereo not given) + CC1OCC2(CCN(c3cnc(Sc4ccnc(N)c4Cl)c(N)n3)CC2)C1N — what was its viability, T/C?
46.8

Sample O=C(c1cc(Cc2n[nH]c(=O)c3ccccc23)ccc1F)N1CCN(C(=O)C2CC2)CC1 + C=CC(=O)N1CCN(c2nc(OCC3CCCN3C)nc3c2CCN(c2cccc4cccc(C)c24)C3)CC1CC#N — what was its viability, T/C?
43.9

Sample CC(C)NCC(C(=O)N1CCN(c2ncnc3c2C(C)CC3O)CC1)c1ccc(Cl)cc1 (stereo not given) + COc1cc2nc(C)nc(NC(C)c3cc(N)cc(C(F)(F)F)c3)c2cc1OC1CCOC1 — what was its viability, T/C?
37.3

Sample CC1OCC2(CCN(c3cnc(Sc4ccnc(N)c4Cl)c(N)n3)CC2)C1N (stereo not given) + CNCc1ccccc1-c1csc(C(C)Nc2nc(C)nc3cc(OC)c(OC)cc23)c1 — what was its viability, T/C?
2.11

Sample CC(C)NCC(C(=O)N1CCN(c2ncnc3c2C(C)CC3O)CC1)c1ccc(Cl)cc1 (stereo not given) + CNCc1ccccc1-c1csc(C(C)Nc2nc(C)nc3cc(OC)c(OC)cc23)c1 — what was its viability, T/C?
0.58
